- experiment-summary: MicroPET/CT imaging and biodistribution, HepG2 tumor model
- Type: in vivo, nude mice
- stated-conditions: both sexes, BALB/c nude, mouse, bone, iv, 5.55 MBq, total radioactivity; HepG2 (GPC3+) tumor model, 120 min, PET; read-out: Bone uptake

{"molecule": "CC(C)C[C@H](NC(=O)[C@H](CCCNC(=N)N)NC(=S)Nc1ccc(CC2CN(CC(=O)O)CCN(CC(=O)O)CCN2CC(=O)O)cc1)C(=O)N[C@@H](CC(N)=O)C(=O)N[C@H](C(=O)NCC(=O)NCC(=O)N[C@H](C(=O)N[C@@H](Cc1ccc(O)cc1)C(=O)N[C@@H](Cc1ccccc1)C(=O)N[C@@H](CC(C)C)C(=O)N[C@H](C(=O)N[C@H](C(=O)N[C@@H](CCCNC(=N)N)C(=O)N[C@@H](CCC(N)=O)C(=O)O)[C@@H](C)O)[C@@H](C)O)[C@@H](C)O)C(C)C (single isomer, unassigned) [Al[^18F]F-GP2076]", "tissue uptake at 2 h (%ID/g)": 0.21}

---

- experiment-summary: MicroPET/CT imaging and biodistribution, HepG2 tumor model
- Type: in vivo, nude mice
- stated-conditions: both sexes, BALB/c nude, mouse, bone, iv, 5.55 MBq, total radioactivity; HepG2 (GPC3+) tumor model, 60 min, PET; read-out: Bone uptake
quantity-kind: tissue uptake at 1 h (%ID/g)

{"molecule": "CC(C)C[C@H](NC(=O)[C@H](CCCNC(=N)N)NC(=S)Nc1ccc(CC2CN(CC(=O)O)CCN(CC(=O)O)CCN2CC(=O)O)cc1)C(=O)N[C@@H](CC(N)=O)C(=O)N[C@H](C(=O)NCC(=O)NCC(=O)N[C@H](C(=O)N[C@@H](Cc1ccc(O)cc1)C(=O)N[C@@H](Cc1ccccc1)C(=O)N[C@@H](CC(C)C)C(=O)N[C@H](C(=O)N[C@H](C(=O)N[C@@H](CCCNC(=N)N)C(=O)N[C@@H](CCC(N)=O)C(=O)O)[C@@H](C)O)[C@@H](C)O)[C@@H](C)O)C(C)C (single isomer, unassigned) [Al[^18F]F-GP2076]", "unit-tag": "%ID/g", "assay-value": 0.35}

---

- experiment-summary: MicroPET/CT imaging and biodistribution, HepG2 tumor model
- Format: in vivo, nude mice
- stated-conditions: both sexes, BALB/c nude, mouse, HepG2 tumor / liver, iv, 5.55 MBq, total radioactivity; HepG2 (GPC3+) tumor bearing mice, 120 min; read-out: Tumor-to-liver (T/L) uptake ratio

{"compound": "CC(C)C[C@H](NC(=O)[C@H](CCCNC(=N)N)NC(=S)Nc1ccc(CC2CN(CC(=O)O)CCN(CC(=O)O)CCN2CC(=O)O)cc1)C(=O)N[C@@H](CC(N)=O)C(=O)N[C@H](C(=O)NCC(=O)NCC(=O)N[C@H](C(=O)N[C@@H](Cc1ccc(O)cc1)C(=O)N[C@@H](Cc1ccccc1)C(=O)N[C@@H](CC(C)C)C(=O)N[C@H](C(=O)N[C@H](C(=O)N[C@@H](CCCNC(=N)N)C(=O)N[C@@H](CCC(N)=O)C(=O)O)[C@@H](C)O)[C@@H](C)O)[C@@H](C)O)C(C)C (single isomer, unassigned) [Al[^18F]F-GP2076]", "tissue to tissue ratio at 2 h": 0.46}

---

- experiment-summary: Measurement of lipophilicity (Log P), 1-octanol/PBS partition
- Assay type: physicochemical
- stated-conditions: 1-octanol / PBS pH 7.4, mean ± SD, n = 4
- Method: Measurement of Lipophilicity (Log P). Approximately 185 kBq of Al[^18F]F-GP2076 or Al[^18F]F-GP2633 in 0.5 ml of phosphate-buffered saline (PBS) (pH 7.4) was mixed with 0.5 ml of 1-octanol. […] Aliquots of 0.2 ml each layer were taken and the radioactivity was determined by gamma counting (GC-1200, USTC Chuangxin Co. Ltd. Zonkia Branch, China). The distribution coefficient P was calculated as the ratio of radioactivity in the organic phase to that in the aqueous phase. […]

{"compound": "CC(C)C[C@H](NC(=O)[C@H](CCCNC(=N)N)NC(=S)Nc1ccc(CC2CN(CC(=O)O)CCN(CC(=O)O)CCN2CC(=O)O)cc1)C(=O)N[C@@H](CC(N)=O)C(=O)N[C@H](C(=O)NCC(=O)NCC(=O)N[C@H](C(=O)N[C@@H](Cc1ccc(O)cc1)C(=O)N[C@@H](Cc1ccccc1)C(=O)N[C@@H](CC(C)C)C(=O)N[C@H](C(=O)N[C@H](C(=O)N[C@@H](CCCNC(=N)N)C(=O)N[C@@H](CCC(N)=O)C(=O)O)[C@@H](C)O)[C@@H](C)O)[C@@H](C)O)C(C)C (single isomer, unassigned) [Al[^18F]F-GP2076]", "logP": -2.1}

---

- experiment-summary: MicroPET/CT imaging and biodistribution, HepG2 tumor model
- Format: in vivo, nude mice
- stated-conditions: both sexes, BALB/c nude, mouse, liver, iv, 5.55 MBq, total radioactivity; HepG2 (GPC3+) tumor model, 120 min, PET; read-out: Liver uptake

{"molecule": "CC(C)C[C@H](NC(=O)[C@H](CCCNC(=N)N)NC(=S)Nc1ccc(CC2CN(CC(=O)O)CCN(CC(=O)O)CCN2CC(=O)O)cc1)C(=O)N[C@@H](CC(N)=O)C(=O)N[C@H](C(=O)NCC(=O)NCC(=O)N[C@H](C(=O)N[C@@H](Cc1ccc(O)cc1)C(=O)N[C@@H](Cc1ccccc1)C(=O)N[C@@H](CC(C)C)C(=O)N[C@H](C(=O)N[C@H](C(=O)N[C@@H](CCCNC(=N)N)C(=O)N[C@@H](CCC(N)=O)C(=O)O)[C@@H](C)O)[C@@H](C)O)[C@@H](C)O)C(C)C (single isomer, unassigned) [Al[^18F]F-GP2076]", "tissue uptake at 2 h [%ID/g]": 2.07}

---

- experiment-summary: MicroPET/CT imaging and biodistribution, HepG2 tumor model
- Format: in vivo, nude mice
- stated-conditions: both sexes, BALB/c nude, mouse, tumor / kidneys, iv, 5.55 MBq, total radioactivity; HepG2 (GPC3+) tumor bearing mice, 30 min; read-out: Tumor-to-kidneys (T/K) uptake ratio
quantity-kind: tissue to tissue ratio at 0.5 h

{"molecule": "CC(C)C[C@H](NC(=O)[C@H](CCCNC(=N)N)NC(=S)Nc1ccc(CC2CN(CC(=O)O)CCN(CC(=O)O)CCN2CC(=O)O)cc1)C(=O)N[C@@H](CC(N)=O)C(=O)N[C@H](C(=O)NCC(=O)NCC(=O)N[C@H](C(=O)N[C@@H](Cc1ccc(O)cc1)C(=O)N[C@@H](Cc1ccccc1)C(=O)N[C@@H](CC(C)C)C(=O)N[C@H](C(=O)N[C@H](C(=O)N[C@@H](CCCNC(=N)N)C(=O)N[C@@H](CCC(N)=O)C(=O)O)[C@@H](C)O)[C@@H](C)O)[C@@H](C)O)C(C)C (single isomer, unassigned) [Al[^18F]F-GP2076]", "quantity-kind": "tissue to tissue ratio at 0.5 h", "assay-value": 0.25}

---

- experiment-summary: MicroPET/CT imaging and biodistribution, HepG2 tumor model
- Type: in vivo, nude mice
- stated-conditions: both sexes, BALB/c nude, mouse, iv, 5.55 MBq, total radioactivity; HepG2 (GPC3+) tumor model, 120 min, PET, decay-corrected; read-out: Tumor uptake
- Procedure: MicroPET/CT Imaging and Biodistribution. MicroPET/CT scans were carried out using a Siemens Inveon PET/CT scanner (Siemens, Germany). […] Inveon Research Workplace (IRW) 3.0 software (Siemens, Germany) was used to measure the regions of interest (ROIs) determined by superimposing the ellipsoid volume of interest (VOI) on the target tissues. The radioactivity concentrations were measured by the mean pixel intensity within each VOI and converted to dose/ml using a calibration constant. […]
quantity-kind: tissue uptake at 2 h (%ID/g)

{"compound": "CC(C)C[C@H](NC(=O)[C@H](CCCNC(=N)N)NC(=S)Nc1ccc(CC2CN(CC(=O)O)CCN(CC(=O)O)CCN2CC(=O)O)cc1)C(=O)N[C@@H](CC(N)=O)C(=O)N[C@H](C(=O)NCC(=O)NCC(=O)N[C@H](C(=O)N[C@@H](Cc1ccc(O)cc1)C(=O)N[C@@H](Cc1ccccc1)C(=O)N[C@@H](CC(C)C)C(=O)N[C@H](C(=O)N[C@H](C(=O)N[C@@H](CCCNC(=N)N)C(=O)N[C@@H](CCC(N)=O)C(=O)O)[C@@H](C)O)[C@@H](C)O)[C@@H](C)O)C(C)C (single isomer, unassigned) [Al[^18F]F-GP2076]", "quantity-kind": "tissue uptake at 2 h", "unit-tag": "%ID/g", "assay-value": 0.73}
